measured-target: T1, CD123 Protein, His Tag, Acro Biosciences Cat. No. ILA-H52H6 (Homo sapiens (Human), UniProt P26951 19-305)
T1 construct: Bought protein; not shown: His tag
T1 sequence: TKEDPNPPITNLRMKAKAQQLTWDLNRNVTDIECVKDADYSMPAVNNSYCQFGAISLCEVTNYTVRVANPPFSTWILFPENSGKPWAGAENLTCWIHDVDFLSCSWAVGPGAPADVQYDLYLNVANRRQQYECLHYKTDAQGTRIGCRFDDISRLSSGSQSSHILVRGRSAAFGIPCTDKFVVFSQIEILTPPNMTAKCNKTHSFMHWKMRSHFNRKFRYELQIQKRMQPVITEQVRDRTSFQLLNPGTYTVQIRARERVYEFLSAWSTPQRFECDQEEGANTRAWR
method-description: BLI, IgG on anti-human Fc sensor, 50 nM CD123, pH 7.4 and pH 5.4
metric-name: binding result

MYT1286 (antibody, V domains shown, IgG) VH: QVQLVQSGAEVKKPGASVKVSCKASGYIFTSSIMHWVRQAPGQGLEWIGYIKPYNDGTKYNEKFKGRATLTSDRSTSTAYMELSSLRSEDTAVYYCAREGGNDHYDTMDYWGQGTLVTVSS VL: DIQMTQSPSSLSASVGDRVTITCRASQDINSYLSWFQQKPGKAPKTLIYRVNRLVDGVPSRFSGSGSGNDYTLTISSLQPEDFATYYCLQYDAFPYTFGQGTKVEIK	binds
MYT1270 (antibody, V domains shown, IgG) VH: QVQLVQSGAEVKKPGASVKVSCKASGYIFTSSIMHWVRQAPGQGLEWIGYIKPYNDGHKYNEKFKGRATLTSDRSTSTAYMELSSLRSEDTAVYYCAREGGNDYYDTMDYWGQGTLVTVSS VL: DIQMTQSPSSLSASVGDRVTITCRASQDINSYLSWFQQKPGKAPKTLIYRVNRLVDGVPSRFSGSGSGNDYTLTISSLQPEDFATYYCLQYDAFPYTFGQGTKVEIK	binds
MYT1289 (antibody, V domains shown, IgG) VH: QVQLVQSGAEVKKPGASVKVSCKASGYIFTSSIMHWVRQAPGQGLEWIGYIKPYNDGTKYNEKFKGRATLTSDRSTSTAYMELSSLRSEDTAVYYCAREGGNDYYDHMDYWGQGTLVTVSS VL: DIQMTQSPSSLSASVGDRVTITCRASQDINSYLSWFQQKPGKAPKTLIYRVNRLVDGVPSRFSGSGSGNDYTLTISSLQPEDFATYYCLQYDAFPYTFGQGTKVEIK	binds
